The values you see were collected from ChEMBL document CHEMBL1201861.

- Tested on: IA-LM;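 note: cell viability assay measuring growth inhibition of human IA-LM cells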
- measurement-notes: cells
- Type: functional, cell-based
- assay-setup: Homo sapiens
- Description: SANGER: Inhibition of human IA-LM cell growth in a cell viability assay.
pIC50: −log10 of the molar value.

{"compound": "C[C@]12O[C@H](C[C@]1(O)CO)n1c3ccccc3c3c4c(c5c6ccccc6n2c5c31)CNC4=O [LESTAURTINIB]", "bound-sign": "<", "pIC50": 5.70}
{"compound": "C/C=C(/C)C(=O)O[C@H]1C(C)=C2[C@H]([C@@H]1OC(=O)CCCCCCC)[C@@](C)(OC(C)=O)C[C@H](OC(=O)CCC)[C@@]1(O)[C@H]2OC(=O)[C@@]1(C)O [THAPSIGARGIN]", "bound-sign": "=", "pIC50": 8.62}
{"compound": "CC[C@@]1(O)C(=O)OCc2c1cc1n(c2=O)Cc2cc3ccccc3nc2-1 [CAMPTOTHECIN]", "bound-sign": "=", "pIC50": 7.92}

====

Below, each of the compounds is paired with its reported pIC50 value.
- System: NEC8;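 note: growth inhibition of human NEC8 cells, read out by a cell viability assay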
- measurement-notes: cells
- Format: functional, cell-based
- assay-setup: Homo sapiens
- Description: SANGER: Inhibition of human NEC8 cell growth in a cell viability assay.
pIC50: −log10 of the molar value.

{"compound-structure-string": "Fc1cc(-c2cc[nH]/c(=N/c3ccc(-n4cnc(N5CCOCC5)n4)cc3)n2)cc(N2CCOCC2)c1", "bound-sign": "=", "pIC50": 5.99}
{"compound-structure-string": "CC[C@@]1(O)C(=O)OCc2c1cc1n(c2=O)Cc2cc3ccccc3nc2-1", "bound-sign": "=", "pIC50": 8.51}
{"compound-structure-string": "C[C@]1(c2nc3c(C(N)=O)cccc3[nH]2)CCCN1", "bound-sign": "<", "pIC50": 5.30}
{"compound-structure-string": "C[C@]12O[C@H](C[C@]1(O)CO)n1c3ccccc3c3c4c(c5c6ccccc6n2c5c31)CNC4=O", "bound-sign": "=", "pIC50": 6.57}

====

- System: COLO-792
- measurement-notes: cells
- Type: functional, cell-based
- assay-setup: Homo sapiens
- Description: SANGER: Inhibition of human COLO-792 cell growth in a cell viability assay.
pIC50: −log10 of the molar value.
# pIC50 per record follows
endpoint-label: pIC50

{"molecule": "CC(C)=CC[C@@H](O)C1=CC(=O)c2c(O)ccc(O)c2C1=O [SHIKONIN]", "target-under-test": "COLO-792", "value-measured": "< 4.80"}
{"molecule": "C/C=C(/C)C(=O)O[C@H]1C(C)=C2[C@H]([C@@H]1OC(=O)CCCCCCC)[C@@](C)(OC(C)=O)C[C@H](OC(=O)CCC)[C@@]1(O)[C@H]2OC(=O)[C@@]1(C)O [THAPSIGARGIN]", "target-under-test": "COLO-792", "value-measured": 7.23}
{"molecule": "O=c1cc(N2CCOCC2)oc2c(-c3cccc4c3sc3ccccc34)cccc12", "target-under-test": "COLO-792", "value-measured": "< 5.70"}
{"molecule": "COc1cc(Nc2c(C#N)cnc3cc(OCCCN4CCN(C)CC4)c(OC)cc23)c(Cl)cc1Cl [BOSUTINIB]", "target-under-test": "COLO-792", "value-measured": "< 5.70"}
{"molecule": "CC(O)(CS(=O)(=O)c1ccc(F)cc1)C(=O)Nc1ccc(C#N)c(C(F)(F)F)c1 (stereo not given) [BICALUTAMIDE]", "target-under-test": "COLO-792", "value-measured": "< 5.99"}
